Assay: Cmax in Sprague-Dawley rat at 5 mg/kg, po by LC-MS/MS analysis
Assay type: ADME, organism-based
Parameters: dose 5 mg/kg, route po
Details: in vivo
TEST READOUT: Cmax (ng/mL)

- CCN(CC)c1ccc(C(NC(=O)C(C)C)c2ccc3cccnc3c2O)cc1 (stereo unspecified): 239

---

Assay: Tmax in Sprague-Dawley rat at 5 mg/kg, po by LC-MS/MS analysis
Format: ADME, organism-based
Conditions: in vivo
TEST READOUT: Tmax (min)

- CCN(CC)c1ccc(C(NC(=O)C(C)C)c2ccc3cccnc3c2O)cc1 (stereo unspecified): 15

---

Experiment: MRT (0 to t) in Sprague-Dawley rat at 2 mg/kg, iv by LC-MS/MS analysis
Type: ADME, organism-based
Conditions: in vivo
TEST READOUT: MRT last (h)

- CCN(CC)c1ccc(C(NC(=O)C(C)C)c2ccc3cccnc3c2O)cc1 (stereo unspecified): 2.05

Attribution: ChEMBL document CHEMBL5375952
